All figures here come from patent US9469608B2.

- assayed system: human α-thrombin (Homo sapiens (Human))
- procedure details: In vitro assay for determining proteinase inhibition (thrombin Ki)
- Assay type: biochemical
pKi: −log10 of the molar value.
Decision: pKi compared against 7; not below it gives y, below it gives n.

| compound | label class |
| --- | --- |
| NCc1ccc(Cl)cc1CNC(=O)[C@@H]1CCCN1C(=O)C1(O)CCc2ncccc21 (stereo partly drawn) [Compound 19-4] | y |
| NCc1ccc(Cl)cc1CNC(=O)[C@@H]1CCCN1C(=O)c1cc(-c2ccncc2)c[nH]1 [Compound 13-10, (2,2,2-trifluoroacetate)] | y |
| NCc1ccc(Cl)cc1CNC(=O)[C@@H]1CCN1C(=O)C1(O)CCc2ncccc21 (stereo partly drawn) [Compound 26-12, bis(2,2,2-trifluoroacetate)] | n |
| NCc1ccc(Cl)cc1CNC(=O)[C@@H]1CCCN1C(=O)C1CNc2ccccc21 (stereo partly drawn) [Compound 25-5, bis(2,2,2-trifluoroacetate)] | y |
| NCc1ccc(Cl)cc1CNC(=O)[C@@H]1CCN1C(=O)C1OCc2ccccc21 (stereo partly drawn) [Compound 33-7] | y |

----------
- assayed system: human α-thrombin (Homo sapiens (Human), UniProt P00734)
- procedure details: In vitro assay for determining proteinase inhibition (thrombin Ki)
- Type: biochemical
- condition info: 25° C., 0.05 M TRIS buffer pH 7.4, 0.15 M NaCl, 0.1% PEG; competitive inhibition assumed
Below, each of the molecules is paired with its reported log10(Ki) value.
assay endpoint: log10(Ki) (log10 of the value in nM)

| molecule | log10(Ki) |
| --- | --- |
| NCc1ccc(Cl)cc1CNC(=O)[C@@H]1CCCN1C(=O)c1ccc(C(F)(F)F)[nH]1 [Compound 4-5] | 1.43 |
| NCc1ccc(Cl)cc1CNC(=O)[C@@H]1CCN1C(=O)C1NCc2ccccc21 (stereo partly shown) [Compound 34-7, bis(2,2,2-trifluoroacetate)] | 0.40 |
| NCc1ccc(Cl)cc1CNC(=O)[C@@H]1CCCN1C(=O)C1(O)CCc2cnccc21 (stereo partly shown) [Compound 27-9] | 1.30 |
| NCc1ccc(Cl)cc1CNC(=O)[C@@H]1CCCN1C(=O)c1cc(C(=O)c2cccnc2)c[nH]1 [Compound 8-8] | 1.26 |
| NCc1ccc(Cl)cc1CNC(=O)[C@@H]1CCCN1C(=O)C1NCc2ccccc21 (single isomer, unassigned) [Compound 23-4a, bis(2,2,2-trifluoroacetate)] | 1.89 |
| C[C@@]1(C(=O)NCc2cc(Cl)ccc2CN)CCCN1C(=O)[C@H]1CCC(=O)N1 [Compound 43] | 2.72 |
| CC(C)(C)[C@@H](O)C(=O)N1CCC[C@H]1C(=O)NCc1cc(Cl)ccc1CO [Compound 17-5] | 3.54 |

----------
- assayed system: human α-thrombin (Homo sapiens (Human))
- procedure details: In vitro assay for determining proteinase inhibition (thrombin Ki)
- Format: biochemical
- condition info: 25° C., 0.05 M TRIS buffer pH 7.4, 0.15 M NaCl, 0.1% PEG; competitive inhibition assumed
pKi: −log10 of the molar value.
Item-by-item account of pKi
assay endpoint: pKi

| molecule | endpoint value |
| --- | --- |
| CCOC(=O)c1ccc(C(=O)N2CCC[C@H]2C(=O)NCc2cc(Cl)ccc2CN)[nH]1 | 7.33 |
| NCc1ccc(Cl)cc1CNC(=O)[C@@H]1CCCN1C(=O)C1(O)CCCc2cnccc21 (stereo partly shown) [Compound 31-7, bis(2,2,2-trifluoroacetate)] | 8.32 |
| NCc1ccc(Cl)cc1CNC(=O)[C@@H]1CCCN1C(=O)c1cc(Cc2ccncc2)c[nH]1 [Compound 7-1, (2,2,2-trifluoroacetate)] | 7.77 |
| CC(C)(C)[C@@H](CCO)C(=O)N1CCC[C@H]1C(=O)NCc1cc(Cl)ccc1CN | 7.60 |
